# assay.comment: AUC (0 to t) in Sprague-Dawley rat at 2 mg/kg, iv measured upto 48 hrs by LC-MS/MS analysis
# Format: ADME, organism-based
# settings: in vivo

smiles.text: C#CCN(Cc1ccc(S(=O)(=O)N(C)C#C)cc1)c1ccc(-c2nc3ccccc3s2)cc1
AUC(0-t) at 48 h / ng·h/mL: 915

---

# System: ASPC1
# assay.comment: Antiproliferative activity against human AsPC1 cells assessed as inhibition of cell growth incubated for 72 hrs by CCK-8 assay
# Type: functional, cell-based
Active and inactive are the calls of the source. The calls are words filed in the database; no cut-off is given here.

smiles.text: C#CN(C)S(=O)(=O)c1ccc(Cn2ccc3c(Cl)nc(Cl)nc32)cc1
Activity: inactive
//
smiles.text: CNS(=O)(=O)c1ccc(COc2ccc3cc(Br)ccc3c2)cc1
Activity: inactive
//
smiles.text: C#Cc1ccc(OCc2ccc(S(=O)(=O)N(C)C#C)cc2)cc1
Activity: inactive
//
smiles.text: C#CN(C)S(=O)(=O)c1ccc2ccccc2c1
Activity: inactive
//
smiles.text: C#CN(C)S(=O)(=O)c1ccc(CN2CCN(C(=O)OC(C)(C)C)CC2)cc1
Activity: inactive
//
smiles.text: C#CN(C)S(=O)(=O)c1ccc(-c2ccccc2)cc1
Activity: inactive
//
smiles.text: C#CN(C)S(=O)(=O)c1ccc(C(=O)OC)cc1
Activity: inactive
//
smiles.text: CNS(=O)(=O)c1ccc(CN(C)c2ccc(Cl)cc2)cc1
Activity: inactive
//
smiles.text: C#CN(C)S(=O)(=O)c1cccc2ccccc12
Activity: inactive
//
smiles.text: C#CN(C)S(=O)(=O)c1ccc(CN2CCOCC2)cc1
Activity: inactive
//
smiles.text: C#CN(C)S(=O)(=O)c1ccc(Oc2ccccc2)cc1
Activity: inactive
